system: biotinyl-Ile-oxazolone; test: self-aminoacylation, catalytic enhancement (BIO) (fold over background); higher = more active; k-Seq, kA / k0A0; sequences stand for … in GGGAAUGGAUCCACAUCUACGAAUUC…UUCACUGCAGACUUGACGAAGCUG
Fewer inactive variants are shown than the library holds.
Measure: self-aminoacylation
Number, no unit, nothing else.

[
  {
    "Query sequence": "CUACUUCAACCAAUCGGGCUG [Fam1A.1 aminoacylation ribozyme variant]",
    "Tested on": "biotinyl-Ile-oxazolone",
    "Result number": 1.71
  },
  {
    "Query sequence": "CCACACUCCAAACAAUCGGUC [Fam1B.1 aminoacylation ribozyme variant]",
    "Tested on": "biotinyl-Ile-oxazolone",
    "Result number": 0.982
  },
  {
    "Query sequence": "CCACACUUCAAGCAUUCAGUC [Fam1B.1 aminoacylation ribozyme variant]",
    "Tested on": "biotinyl-Ile-oxazolone",
    "Result number": 0.878
  },
  {
    "Query sequence": "AUUACCCUGCUCAUCGAGUGG [Fam2.1 aminoacylation ribozyme variant]",
    "Tested on": "biotinyl-Ile-oxazolone",
    "Result number": 0.831
  },
  {
    "Query sequence": "CCACAUUUUAAGCAAUCGGUC [Fam1B.1 aminoacylation ribozyme variant]",
    "Tested on": "biotinyl-Ile-oxazolone",
    "Result number": 1.33
  },
  {
    "Query sequence": "AAGUUUGCUAAUAGUCGCUCG [Fam3.1 aminoacylation ribozyme variant]",
    "Tested on": "biotinyl-Ile-oxazolone",
    "Result number": 0.706
  }
]

Q. What does the data say about its self-aminoacylation? Entry: AUUACCCUGGCCAUCGAUUGA [Fam2.1 aminoacylation ribozyme variant]
A. 0.753

Q. Same lookup for AUUCACCUAGGUCAUCAGGCG [Fam2.2 aminoacylation ribozyme variant] , please.
A. 1.26

Q. Same lookup for UUUCACCUAGGUCCUCGGGUG [Fam2.2 aminoacylation ribozyme variant] , please.
A. 3.82

Q. Same lookup for AGGUUUGAUAAUAGUCGCAAG [Fam3.1 aminoacylation ribozyme variant] , please.
A. 1.55

Q. Same lookup for AGCCACCUAGGUCAUCGGGUG [Fam2.2 aminoacylation ribozyme variant] , please.
A. 6.24

Q. Same lookup for AUUACCCUGGUCAAAGAGUGA [Fam2.1 aminoacylation ribozyme variant] , please.
A. 4

Q. Same lookup for AAUACCCUGGUCAUCGGGUGA [Fam2.1 aminoacylation ribozyme variant] , please.
A. 7.82

Q. Same lookup for ACUCGCCUAGGUCAUCGGGUG [Fam2.2 aminoacylation ribozyme variant] , please.
A. 6.84

Q. Same lookup for CUACUUCAAACAAUCCGUCUU [Fam1A.1 aminoacylation ribozyme variant] , please.
A. 0.814

Q. Same lookup for AUUCACCUAUGUCAUCGGGUU [Fam2.2 aminoacylation ribozyme variant] , please.
A. 1.35

Q. Same lookup for CUACUUCAAACAAUCGGGCGG [Fam1A.1 aminoacylation ribozyme variant] , please.
A. 1.63

Q. Same lookup for AUUACUCUGGUCAGCGAGUGA [Fam2.1 aminoacylation ribozyme variant] , please.
A. 3.29

---

system: biotinyl-Met-oxazolone; test: self-aminoacylation, catalytic enhancement (BMO) (fold over background); higher = more active; k-Seq, kA / k0A0; sequences stand for … in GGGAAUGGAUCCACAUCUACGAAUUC…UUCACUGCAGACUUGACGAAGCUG
Variants at the floor of the assay were thinned out.
Measure: self-aminoacylation
Number, no unit, nothing else.

[
  {
    "Query sequence": "CUACUUCAAACAAUCUGUUUG [Fam1A.1 aminoacylation ribozyme variant]",
    "self-aminoacylation": 0.713
  }
]

Q. What does the data say about its self-aminoacylation? Entry: AUUACCCUGGUCCUCGGGUGA [Fam2.1 aminoacylation ribozyme variant]
A. 9.89

Q. Same lookup for CUACUUCAAACAAUCGUUAUG [Fam1A.1 aminoacylation ribozyme variant] , please.
A. 0.48

Q. Same lookup for CUACUUCAAAAAAUCGUUCUG [Fam1A.1 aminoacylation ribozyme variant] , please.
A. 0.564

Q. Same lookup for ACUACCCUGGUGAUCGAGUGA [Fam2.1 aminoacylation ribozyme variant] , please.
A. 6.46

Q. Same lookup for AUUACCCUGAUCAUAGAGUGA [Fam2.1 aminoacylation ribozyme variant] , please.
A. 15.8

Q. Same lookup for AUUCACCUAGGCCAUCGGGUA [Fam2.2 aminoacylation ribozyme variant] , please.
A. 3.31

Q. Same lookup for AUUUACGUAGGUCAUCGGGUG [Fam2.2 aminoacylation ribozyme variant] , please.
A. 3.99

Q. Same lookup for ACGUUUGCUAACAGUCGCAAG [Fam3.1 aminoacylation ribozyme variant] , please.
A. 1.53

---

test system: biotinyl-Leu-oxazolone; assay: self-aminoacylation, catalytic enhancement (BLO) (fold over background); higher = more active; k-Seq, kA / k0A0; sequences stand for … in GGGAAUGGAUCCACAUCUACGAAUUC…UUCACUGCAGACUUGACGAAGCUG
This sample holds only a part of the variants without activity.
Note to self: class = bucket of self-aminoacylation, per low interval: < 1; middle interval: ≥ 1 and < 4; high interval: ≥ 4

Here are 10 sequences together with their reported answers.
[
  {
    "Query sequence": "AAGUAUGCUAAUAGGCGCAAG [Fam3.1 aminoacylation ribozyme variant]",
    "Class": "middle interval"
  },
  {
    "Query sequence": "ACUACCCUGGUCAACGAGUGA [Fam2.1 aminoacylation ribozyme variant]",
    "Class": "high interval"
  },
  {
    "Query sequence": "AUUACCCUGGUUACCGAGUGA [Fam2.1 aminoacylation ribozyme variant]",
    "Class": "high interval"
  },
  {
    "Query sequence": "CUACUUCAAACAGUCGUUCUG [Fam1A.1 aminoacylation ribozyme variant]",
    "Class": "low interval"
  },
  {
    "Query sequence": "CAACACUUCAAGCAAUCUGUC [Fam1B.1 aminoacylation ribozyme variant]",
    "Class": "low interval"
  },
  {
    "Query sequence": "AAGUUUGCUGAGAGUCGCAAG [Fam3.1 aminoacylation ribozyme variant]",
    "Class": "middle interval"
  },
  {
    "Query sequence": "CUACUUCAAACGAUCGGUCUA [Fam1A.1 aminoacylation ribozyme variant]",
    "Class": "low interval"
  },
  {
    "Query sequence": "AUUCAUCCAGGUCAUCGGGUG [Fam2.2 aminoacylation ribozyme variant]",
    "Class": "high interval"
  },
  {
    "Query sequence": "AUUCACGUAGGUCAUGGGGUG [Fam2.2 aminoacylation ribozyme variant]",
    "Class": "high interval"
  },
  {
    "Query sequence": "AUUAUCCGGGUCAUCGAGUGA [Fam2.1 aminoacylation ribozyme variant]",
    "Class": "high interval"
  }
]

Q. Dear colleague, I would appreciate it if you could identify the bin for CCACAAUUCAAACAAUCGGUC [Fam1B.1 aminoacylation ribozyme variant] and reply at your convenience.
A. middle interval

Q. Same lookup for CCACACUUCAAGCAAUCUGAC [Fam1B.1 aminoacylation ribozyme variant] , please.
A. low interval

---

test system: biotinyl-Ile-oxazolone; assay: self-aminoacylation, catalytic enhancement (BIO) (fold over background); higher = more active; k-Seq, kA / k0A0; sequences stand for … in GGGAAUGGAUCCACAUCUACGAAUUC…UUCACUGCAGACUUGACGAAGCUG
Fewer inactive variants are shown than the library holds.
Measure: self-aminoacylation
Number, no unit, nothing else.

Recorded self-aminoacylation, per entry:
[
  {
    "Query sequence": "CCCCACUUCAAGCACUCGGUC [Fam1B.1 aminoacylation ribozyme variant]",
    "Tested on": "biotinyl-Ile-oxazolone",
    "self-aminoacylation": 2.26
  },
  {
    "Query sequence": "AUAACCCUGGUAAUCGAGUGA [Fam2.1 aminoacylation ribozyme variant]",
    "Tested on": "biotinyl-Ile-oxazolone",
    "self-aminoacylation": 3.97
  },
  {
    "Query sequence": "AAGUUUGCUAUCAGUCGCAAG [Fam3.1 aminoacylation ribozyme variant]",
    "Tested on": "biotinyl-Ile-oxazolone",
    "self-aminoacylation": 0.794
  },
  {
    "Query sequence": "AUUACCCUGGUCAUCGAGUCG [Fam2.1 aminoacylation ribozyme variant]",
    "Tested on": "biotinyl-Ile-oxazolone",
    "self-aminoacylation": 0.765
  },
  {
    "Query sequence": "AUUACACUGGUCACCGAGUGA [Fam2.1 aminoacylation ribozyme variant]",
    "Tested on": "biotinyl-Ile-oxazolone",
    "self-aminoacylation": 2.95
  }
]

Now look at this entry.
Q. What does the data say about its self-aminoacylation? Entry: AAGUUUGCUGAUAAUCGCAAG [Fam3.1 aminoacylation ribozyme variant]
A. 0.707
